system: SF-539 CNS; assay: NCI-60 one-dose screen, 48 h (100 = growth as untreated, 0 = no growth, -100 = all killed); conditions: 10 µM unless noted
About 83,000 compounds went through this panel and 20% of them were active in at least one assay; those are over-represented in the sample as a whole.
For each of the molecules below, state its growth.
Answers are plain numbers, in %.

Guide cases for growth, answers given:
Would you kindly share the measured growth for COc1ccc2c(ccc[n+]2C)c1 ?
101

Would you kindly share the measured growth for CCOC(=O)Nc1nccs1 ?
101

Would you kindly share the measured growth for O=C(O)CC1=CCCCC1 ?
98.4

Would you kindly share the measured growth for Cc1cc2c(C(C)C)c(O)c(O)c(C=Nc3ccccc3[N+](=O)[O-])c2c(O)c1-c1c(C)cc2c(C(C)C)c(O)c(O)c(C=Nc3ccccc3[N+](=O)[O-])c2c1O ?
97.2

Would you kindly share the measured growth for C/C(Cc1ccccc1)=N\O ?
108

Batch lookup, growth per entry.
1. COC(=O)C1(CC(C)=O)NC(=S)NC(=O)C1C#N (configuration not stated)
2. CCOC(=O)C(COS(C)(=O)=O)(COS(C)(=O)=O)C(=O)OCC
3. CC(C)OCC(CCl)OC(=O)Nc1ccccc1 (configuration not stated)

103
112
98.1
